test-method-notes: Toxicity: testis weight/body weight after 106 days of drug treated feed
condition-notes: male CD-1 mice, 8-mice groups, drug treated feed 106 days (300 ppm first 79 days, 600 ppm days 80-106); control 0.31
Structures can show the parent of a compound that is named as a salt.
quantity-measured: Mean values for testes: Right, % body wt.
Put your answer as a value accompanied by its unit after it.

>>> df
                                  molecule   endpoint_value
0  CC(C)NC(=N)NC(=N)NOCCCOc1ccc(Cl)c(Cl)c1  0.32 % body wt.

Each of the following entries comes with a recorded value; kindly state Mean values for testes: Right, % body wt. for each.
1. CC(C)NC(=N)NC(=N)NOCCCOc1ccc(Cl)cc1
2. CC(C)NC(=N)NC(=N)NOCCCOc1cc(Cl)c(Cl)cc1Cl [PS-15, hydrochloride, reference compound]
3. CC(C)NC(=N)NC(=N)NOCCCOc1ccc(Cl)cc1Cl
4. CC(C)NC(=N)NC(=N)NOCCCOc1ccc(F)c(F)c1

Response line:
0.36 % body wt.
0.22 % body wt.
0.20 % body wt.
0.23 % body wt.
